Values were extracted from patent US20260226102A1.

# Measurement Parameters: solvent IPA; standing 24 hours or more
Square brackets hold non-standard residues; d marks the D form. Peptide text beside a SMILES is read from it. * marks the point of attachment. Boc = CC(C)(C)OC(=O)*; Aib = CC(C)(N)C(=O)O; OcHex = C1CCC(O*)CC1; OBn = c1ccc(CO*)cc1; tBu = CC(C)(C)*; OAll = C=CCO*

[
  {
    "Compound": "CC(C)(C)OC(=O)N[C@@H](Cc1ccc(OC(C)(C)C)cc1)C(=O)NC(C)(C)C(=O)N[C@@H](CCC(=O)OCc1ccccc1)C(=O)NCC(=O)O [Boc—Y(tBu)-Aib-E(Bzl)-G-COOH, Boc-Y(tBu)-Aib-E(Bzl)-G-COOH] (Boc-Y(tBu)[Aib]E(OBn)G-OH)",
    "Crystal Formed": "No"
  },
  {
    "Compound": "CC(C)(C)OC(=O)NC(Cc1ccc(OC(C)(C)C)cc1)C(=O)NC(C)(C)C(=O)NC(CCC(=O)OC1CCCCC1)C(=O)NCC(=O)O (stereo not shown) [Boc—Y(tBu)-Aib-E(cHx)-G-COOH, Boc-Y(tBu)-Aib-E(cHx)-G-COOH] (Boc-Y(tBu)[Aib]E(OcHex)G-OH; configuration not given here)",
    "Crystal Formed": "No"
  },
  {
    "Compound": "COC(=O)CCC(NC(=O)C(C)(C)NC(=O)C(Cc1ccc(OC(C)(C)C)cc1)NC(=O)OC(C)(C)C)C(=O)NCC(=O)O (stereo not shown) [Boc—Y(tBu)-Aib-E(Me)-G-COOH, Boc-Y(tBu)-Aib-E(Me)-G-COOH] (Boc-Y(tBu)[Aib]E(OMe)G-OH; configuration not given here)",
    "Crystal Formed": "No"
  },
  {
    "Compound": "C=CCOC(=O)CCC(NC(=O)C(C)(C)NC(=O)C(Cc1ccc(OC(C)(C)C)cc1)NC(=O)OC(C)(C)C)C(=O)NCC(=O)O (stereo not shown) [Boc—Y(tBu)-Aib-E(All)-G-COOH, Boc-Y(tBu)-Aib-E(All)-G-COOH] (Boc-Y(tBu)[Aib]E(OAll)G-OH; configuration not given here)",
    "Crystal Formed": "No"
  }
]

---

# Measurement Parameters: solvent ACN; standing 24 hours or more
Square brackets hold non-standard residues; d marks the D form. Peptide text beside a SMILES is read from it. * marks the point of attachment. Boc = CC(C)(C)OC(=O)*; Aib = CC(C)(N)C(=O)O; OcHex = C1CCC(O*)CC1; OBn = c1ccc(CO*)cc1; tBu = CC(C)(C)*; OAll = C=CCO*

[
  {
    "Molecule": "CC(C)(C)OC(=O)N[C@@H](Cc1ccc(OC(C)(C)C)cc1)C(=O)NC(C)(C)C(=O)N[C@@H](CCC(=O)OCc1ccccc1)C(=O)NCC(=O)O [Boc—Y(tBu)-Aib-E(Bzl)-G-COOH, Boc-Y(tBu)-Aib-E(Bzl)-G-COOH] (Boc-Y(tBu)[Aib]E(OBn)G-OH)",
    "Crystal Formed": "Yes"
  },
  {
    "Molecule": "CC(C)(C)OC(=O)NC(Cc1ccc(OC(C)(C)C)cc1)C(=O)NC(C)(C)C(=O)NC(CCC(=O)OC1CCCCC1)C(=O)NCC(=O)O (stereo not shown) [Boc—Y(tBu)-Aib-E(cHx)-G-COOH, Boc-Y(tBu)-Aib-E(cHx)-G-COOH] (Boc-Y(tBu)[Aib]E(OcHex)G-OH; configuration not given here)",
    "Crystal Formed": "No"
  },
  {
    "Molecule": "COC(=O)CCC(NC(=O)C(C)(C)NC(=O)C(Cc1ccc(OC(C)(C)C)cc1)NC(=O)OC(C)(C)C)C(=O)NCC(=O)O (stereo not shown) [Boc—Y(tBu)-Aib-E(Me)-G-COOH, Boc-Y(tBu)-Aib-E(Me)-G-COOH] (Boc-Y(tBu)[Aib]E(OMe)G-OH; configuration not given here)",
    "Crystal Formed": "No"
  },
  {
    "Molecule": "C=CCOC(=O)CCC(NC(=O)C(C)(C)NC(=O)C(Cc1ccc(OC(C)(C)C)cc1)NC(=O)OC(C)(C)C)C(=O)NCC(=O)O (stereo not shown) [Boc—Y(tBu)-Aib-E(All)-G-COOH, Boc-Y(tBu)-Aib-E(All)-G-COOH] (Boc-Y(tBu)[Aib]E(OAll)G-OH; configuration not given here)",
    "Crystal Formed": "No"
  }
]

---

# Measurement Parameters: solvent EtOAc; standing 24 hours or more
Square brackets hold non-standard residues; d marks the D form. Peptide text beside a SMILES is read from it. * marks the point of attachment. Boc = CC(C)(C)OC(=O)*; Aib = CC(C)(N)C(=O)O; OcHex = C1CCC(O*)CC1; OBn = c1ccc(CO*)cc1; tBu = CC(C)(C)*; OAll = C=CCO*

[
  {
    "Compound": "CC(C)(C)OC(=O)N[C@@H](Cc1ccc(OC(C)(C)C)cc1)C(=O)NC(C)(C)C(=O)N[C@@H](CCC(=O)OCc1ccccc1)C(=O)NCC(=O)O [Boc—Y(tBu)-Aib-E(Bzl)-G-COOH, Boc-Y(tBu)-Aib-E(Bzl)-G-COOH] (Boc-Y(tBu)[Aib]E(OBn)G-OH)",
    "Crystal Formed": "Yes"
  },
  {
    "Compound": "C=CCOC(=O)CCC(NC(=O)C(C)(C)NC(=O)C(Cc1ccc(OC(C)(C)C)cc1)NC(=O)OC(C)(C)C)C(=O)NCC(=O)O (stereo not shown) [Boc—Y(tBu)-Aib-E(All)-G-COOH, Boc-Y(tBu)-Aib-E(All)-G-COOH] (Boc-Y(tBu)[Aib]E(OAll)G-OH; configuration not given here)",
    "Crystal Formed": "Yes"
  },
  {
    "Compound": "CC(C)(C)OC(=O)NC(Cc1ccc(OC(C)(C)C)cc1)C(=O)NC(C)(C)C(=O)NC(CCC(=O)OC1CCCCC1)C(=O)NCC(=O)O (stereo not shown) [Boc—Y(tBu)-Aib-E(cHx)-G-COOH, Boc-Y(tBu)-Aib-E(cHx)-G-COOH] (Boc-Y(tBu)[Aib]E(OcHex)G-OH; configuration not given here)",
    "Crystal Formed": "No"
  },
  {
    "Compound": "COC(=O)CCC(NC(=O)C(C)(C)NC(=O)C(Cc1ccc(OC(C)(C)C)cc1)NC(=O)OC(C)(C)C)C(=O)NCC(=O)O (stereo not shown) [Boc—Y(tBu)-Aib-E(Me)-G-COOH, Boc-Y(tBu)-Aib-E(Me)-G-COOH] (Boc-Y(tBu)[Aib]E(OMe)G-OH; configuration not given here)",
    "Crystal Formed": "No"
  }
]

---

# Measurement Parameters: solvent toluene; standing 24 hours or more
Square brackets hold non-standard residues; d marks the D form. Peptide text beside a SMILES is read from it. * marks the point of attachment. Boc = CC(C)(C)OC(=O)*; Aib = CC(C)(N)C(=O)O; OcHex = C1CCC(O*)CC1; OBn = c1ccc(CO*)cc1; tBu = CC(C)(C)*; OAll = C=CCO*
Reported Endpoint: Crystal Formed

[
  {
    "Compound": "C=CCOC(=O)CCC(NC(=O)C(C)(C)NC(=O)C(Cc1ccc(OC(C)(C)C)cc1)NC(=O)OC(C)(C)C)C(=O)NCC(=O)O (stereo not shown) [Boc—Y(tBu)-Aib-E(All)-G-COOH, Boc-Y(tBu)-Aib-E(All)-G-COOH] (Boc-Y(tBu)[Aib]E(OAll)G-OH; configuration not given here)",
    "Value Reported": "No"
  },
  {
    "Compound": "CC(C)(C)OC(=O)NC(Cc1ccc(OC(C)(C)C)cc1)C(=O)NC(C)(C)C(=O)NC(CCC(=O)OC1CCCCC1)C(=O)NCC(=O)O (stereo not shown) [Boc—Y(tBu)-Aib-E(cHx)-G-COOH, Boc-Y(tBu)-Aib-E(cHx)-G-COOH] (Boc-Y(tBu)[Aib]E(OcHex)G-OH; configuration not given here)",
    "Value Reported": "No"
  },
  {
    "Compound": "CC(C)(C)OC(=O)N[C@@H](Cc1ccc(OC(C)(C)C)cc1)C(=O)NC(C)(C)C(=O)N[C@@H](CCC(=O)OCc1ccccc1)C(=O)NCC(=O)O [Boc—Y(tBu)-Aib-E(Bzl)-G-COOH, Boc-Y(tBu)-Aib-E(Bzl)-G-COOH] (Boc-Y(tBu)[Aib]E(OBn)G-OH)",
    "Value Reported": "Yes"
  },
  {
    "Compound": "COC(=O)CCC(NC(=O)C(C)(C)NC(=O)C(Cc1ccc(OC(C)(C)C)cc1)NC(=O)OC(C)(C)C)C(=O)NCC(=O)O (stereo not shown) [Boc—Y(tBu)-Aib-E(Me)-G-COOH, Boc-Y(tBu)-Aib-E(Me)-G-COOH] (Boc-Y(tBu)[Aib]E(OMe)G-OH; configuration not given here)",
    "Value Reported": "No"
  }
]
